- Target desc: CGRP1 receptor (CRLR/RAMP1 complex) of human neuroblastoma SK-N-MC cells (human, UniProt Q16602 23-461; O60894 27-148)
- Sequence (Q16602 23-461, chain 1 of 2): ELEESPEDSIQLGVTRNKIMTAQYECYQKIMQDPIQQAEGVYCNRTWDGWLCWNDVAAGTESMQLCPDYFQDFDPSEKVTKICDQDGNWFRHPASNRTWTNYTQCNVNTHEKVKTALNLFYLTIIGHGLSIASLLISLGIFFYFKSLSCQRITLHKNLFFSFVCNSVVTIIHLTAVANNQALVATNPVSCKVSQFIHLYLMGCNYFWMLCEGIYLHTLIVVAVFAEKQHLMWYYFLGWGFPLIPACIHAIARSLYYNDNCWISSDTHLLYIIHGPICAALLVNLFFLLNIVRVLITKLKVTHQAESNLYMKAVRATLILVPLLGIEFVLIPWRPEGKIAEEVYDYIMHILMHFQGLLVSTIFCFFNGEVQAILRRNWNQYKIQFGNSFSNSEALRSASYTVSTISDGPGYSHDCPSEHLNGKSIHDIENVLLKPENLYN
- Sequence (O60894 27-148, chain 2 of 2): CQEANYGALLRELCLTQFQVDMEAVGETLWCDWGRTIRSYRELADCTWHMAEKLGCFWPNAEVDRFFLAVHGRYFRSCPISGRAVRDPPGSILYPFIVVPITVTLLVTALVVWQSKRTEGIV
- Assay details: cell-based or functional assay
Square brackets hold non-standard residues; d marks the D form. Oic = O=C(O)[C@@H]1C[C@@H]2CCCC[C@@H]2N1; Igl = N[C@H](C(=O)O)C1Cc2ccccc2C1; hArg = N=C(N)NCCCC[C@H](N)C(=O)O; Cit = NC(=O)NCCC[C@H](N)C(=O)O
Below, each of the binders is paired with its reported Peptide IC50 value.
Write the number in nM without appending the unit.

Look over these answered cases.
binder="WVTHXLAGLLSXSGGVVXKNFVPTDVGPXAF (Ac-WVTH[hArg]LAGLLS[Cit]SGGVV[hArg]KNFVPTDVGP[1-Nal]AF-NH2) [SEQ ID NO 924]" observed=2.18
binder="Ac-WVTH[Cit]LAGLLS[Cit]SGGVV[hArg]KNFVPTDVGP[Igl]AF-NH2 [SEQ ID NO 930]" observed=4.58
binder="Ac-WVTH[hArg]LEGLLK[Cit]SGGVV[hArg]KNFVPTDVG[Oic]FAF-NH2 (lactam (positions not given here); not fully specified; printed as Ac-WVTH[hArg]LEGLLK[Cit]SGGVV[hArg]KNFVPTDVG[Oic]FAF-NH2) [SEQ ID NO 942]" observed=0.83
binder="WVTHXLAGLLSXSGGVVXKNFVPTDVGXXAF (Ac-WVTH[Cit]LAGLLS[Cit]SGGVV[hArg]KNFVPTDVG[Oic][2-Nal]AF-NH2) [SEQ ID NO 934]" observed=1.65

Entry WVTHXLAGLLSXSGGVVXKNXVPTDVGPXAF (Ac-WVTH[Cit]LAGLLS[Cit]SGGVV[hArg]KN[pI-Phe]VPTDVGP[pI-Phe]AF-NH2) [SEQ ID NO 928] ; Peptide IC50 = 1.16

Each recorded value in this set is attributed to patent US20080020978A1.
